Assay Explanation: Selectivity index, ratio of IC50 for human KB cells to IC50 for Plasmodium falciparum 3D7 erythrocytic stage
Type: toxicity
Condition Notes: KB cells versus Plasmodium falciparum 3D7 erythrocytic stage, read-out: Ratio IC50
Measured selectivity ratio by item
Recorded Endpoint: selectivity ratio

1. CC[C@@H]1C=CCC[C@]2(C[C@H]3CC[C@H]4[C@@H](C(=O)OCCCCCCCCCCCCCCCC(=O)N(CCCCNC(=N)N)CCCNC(=N)N)[C@@]5(CCC[C@H](C)O5)NC(=N2)N34)O1 ... 2.4
2. CC[C@@H]1C=CCC[C@]2(C[C@H]3CC[C@H]4[C@@H](C(=O)OCCCCCCCCCCCCCCCC5=NCCCN5CC(O)CCN)[C@@]5(CCC[C@H](C)O5)NC(=N2)N34)O1 (some centres undefined) ... 4.9
3. CC[C@@H]1C=CCC[C@]2(C[C@H]3CC[C@H]4[C@@H](C(=O)OCCCCCCCCCCCCCCCC(=O)N(CCCCNC(=N)N)CCCNC=O)[C@@]5(CCC[C@H](C)O5)NC(=N2)N34)O1 ... 7
4. CCCCCCCCCCCCCCCC(=O)N(CCCCNC(=N)N)CCCNC(=N)N ... 0.6

Recorded values, source ChEMBL document CHEMBL4118022.
